# assayTarget: Serotonin 3 (5-HT3) receptor
# assayComment: Binding affinity towards [3H]quipazine labeled 5-hydroxytryptamine 3 receptor sites in HG108-15
measureName: Ki
Put down the number, then write its unit next to it.

The cases that follow already have their Ki on record.
| compound | Ki |
| --- | --- |
| CCCCCCn1c(=O)cc(C(=O)OC2CC3CCC(C2)N3C)c2ccccc21 (configuration not stated) | 1.1 nM |
| CCCCCn1c(=O)cc(C(=O)OC2CC3CCC(C2)N3C)c2ccccc21 (configuration not stated) | 0.96 nM |
| CCOc1cc(C(=O)OC2CC3CCC(C2)N3C)c2ccccc2n1 (configuration not stated) | 0.88 nM |
| CCn1c(=O)cc(C(=O)OC2CC3CCC(C2)N3C)c2ccccc21 (configuration not stated) | 1.1 nM |
| CN1C2CCC1CC(NC(=O)c1c(O)c3ccccc3n(-c3ccccc3)c1=O)C2 (configuration not stated) | 1.4 nM |

# get_value(readout= Ki, system= Serotonin 3 (5-HT3) receptor) for CN1C2CCC1CC(OC(=O)c1cc(=O)n(Cc3ccccc3)c3ccccc13)C2 (configuration not stated)
1.3 nM

Please tell me: Ki of CC(C)CCn1c(=O)cc(C(=O)OC2CC3CCC(C2)N3C)c2ccccc21 (configuration not stated) , system Serotonin 3 (5-HT3) receptor?
1.5 nM

====

# assayTarget: Serotonin 3 (5-HT3) receptor
# assayComment: Binding affinity towards [3H]quipazine labeled 5-hydroxytryptamine 3 receptor sites in HG108-15
measureName: pKi
Reminder that pKi means the negative base-10 logarithm of the concentration expressed in mol/L.

Some solved entries appear below for comparison.
| compound | pKi |
| --- | --- |
| CCCCn1c(=O)cc(C(=O)OC2CC3CCC(C2)N3C)c2ccccc21 (stereo not given) | 9.17 |
| COc1cc(C(=O)OC2CC3CCC(C2)N3C)c2ccccc2n1 (stereo not given) | 9.24 |
| CC(C)Cc1cc(C(=O)OC2CC3CCC(C2)N3C)c2ccccc2n1 (stereo not given) | 9.16 |
| CN1C2CCC1CC(NC(=O)c1cnc3ccccc3c1O)C2 (stereo not given) | 8.82 |

# ---- query compound ----
Item: CCCCCOc1cc(C(=O)OC2CC3CCC(C2)N3C)c2ccccc2n1 (stereo not given) Test system: Serotonin 3 (5-HT3) receptor Read-out: pKi Value: ?
9.07
